# run description: Liver microsome stability test, mouse
# Assay type: in vitro ADME
# condition context: Mouse liver microsomes; metabolic bioavailability
experimental readout: MF % (%)
Answer with a number only, understood to be in %.

I am curious: what MF % value has been reported for Cn1c(=O)n(CCCO)c(=O)c2c1nc(C1(F)CCC(F)(F)CC1)n2Cc1ccc(F)cc1F [Example E64] ?
56.4

Now consider Cn1c(=O)n(CCCO)c(=O)c2c1nc(C1(F)CCC(F)(F)CC1)n2Cc1ccc(Cl)cc1 [Example E38] and answer again.
42.1

Now consider Cn1c(=O)n(CCCO)c(=O)c2c1nc(Oc1cccc(Cl)c1)n2Cc1ccc(Cl)cc1 [HC-070, reference compound] and answer again.
19.8

Now consider Cn1c(=O)n(CCCO)c(=O)c2c1nc(C1(F)CCC(F)(F)CC1)n2Cc1ccc(F)c(Cl)c1 [Example E68] and answer again.
49.3

Now consider Cn1c(=O)n(CCCO)c(=O)c2c1nc(C1(F)CCC(F)(F)CC1)n2Cc1ccc(F)cc1 [Example E45] and answer again.
59.1
